These measurements were taken from the supplement of paper PMC11196671.

Assay: terephthalic acid (TPA) released, HPLC; higher = more TPA released; extreme values may be limits of the assay
Details: PET substrate: cryPow; 70 °C; pH 7.5; 24 h

>  <sequenceInput>
SNPYQRGPNPTRSALTATGPFSVATYTVSRLLVSGFGGGVIYYPTGTSLTFGGIAMSPGYTADASSLAWLGRRLASHGFVVLVINTNSRFDGPDSRARQLSAALNYLRTSSPSAVRARLDANRLAVAGHSMGGGGTLRIAEQNPSLKAAVPLTPWHPDKTFNTSVPVLIVGAQADTVAPVSQHAIPFYQNLPSTTPKVYVELCNASHIAPNSPNAAISVYTISWMKLWVDNDTRYRQFLCNVNDPALCDFRTNNRHCQ [LCC-ICCG I6M]

>  <terephthalic acid>
0.288 mM

$$$$
